# Tested System: NADPH oxidase 4 (Homo sapiens) (UniProt Q9NPH5)
# Sequence (Q9NPH5 whole entry, looked up): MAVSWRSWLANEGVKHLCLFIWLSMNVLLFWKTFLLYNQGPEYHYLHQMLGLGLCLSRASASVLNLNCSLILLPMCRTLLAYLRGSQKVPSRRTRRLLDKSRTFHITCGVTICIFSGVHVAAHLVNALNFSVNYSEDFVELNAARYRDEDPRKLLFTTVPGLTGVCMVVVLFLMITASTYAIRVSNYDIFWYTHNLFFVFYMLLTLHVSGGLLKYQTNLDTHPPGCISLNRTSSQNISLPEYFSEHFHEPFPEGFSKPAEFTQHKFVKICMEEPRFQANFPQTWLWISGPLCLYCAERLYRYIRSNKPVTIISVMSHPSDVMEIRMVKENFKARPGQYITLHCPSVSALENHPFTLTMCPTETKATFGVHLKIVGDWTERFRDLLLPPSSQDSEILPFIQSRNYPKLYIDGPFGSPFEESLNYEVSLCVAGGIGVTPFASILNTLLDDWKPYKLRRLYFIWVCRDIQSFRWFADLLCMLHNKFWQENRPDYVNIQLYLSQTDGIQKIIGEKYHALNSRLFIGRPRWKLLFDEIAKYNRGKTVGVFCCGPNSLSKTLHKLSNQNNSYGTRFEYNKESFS
# Run Description: NOX4-dependent H2O2 signal modulators, primary screen, NOX inhibitor project, cell-based, HEK293-NOX4, tetracycline-induced, Amplex Red fluorescence (AID 1160)
# Assay Context: 45 min, higher = more signal, called active from +8 up or from −8 down
Categorize each record by its z-score using bucket 1: < 0.2; bucket 2: ≥ 0.2 and < 0.8; bucket 3: ≥ 0.8

[
  {
    "Compound": "COCCCNC(=O)[C@@]1(Cc2ccccc2I)c2ccccc2C(=O)N(Cc2ccccc2OC)[C@H]1c1ccc(CO)cc1",
    "Class": "bucket 2"
  },
  {
    "Compound": "CCOC(=O)C[C@H]1[C@H](OC(=O)c2ccccc2-c2ccccc2)[C@@H](NC(=O)CC(C)C)c2cc(OCCCO)ccc2N1C(=O)c1ccccc1",
    "Class": "bucket 3"
  },
  {
    "Compound": "O=C(NCC(F)(F)F)[C@@H]1c2ccccc2C(=O)N(Cc2cc(C(F)(F)F)cc(C(F)(F)F)c2)[C@H]1c1ccc(CO)cc1",
    "Class": "bucket 2"
  }
]

Hi there! Could you help me figure out the category for [N-]=[N+]=Nc1ccccc1C[C@@]1(C(=O)NCC(O)CO)N=C(c2ccc(OCCCO)cc2)O[C@@H]1c1ccccc1N=[N+]=[N-] (some centres undefined) please?
bucket 2

Category of `O=C1O[C@H](c2ccccc2)[C@H](c2ccccc2)N2[C@H]1[C@@H](C(=O)O)[C@]1(C(=O)Nc3ccccc31)[C@H]2c1ccc(OCCO)cc1` :
bucket 3

Which bin, given its z-score, does COC(=O)C1=CC(CCCO)=CC(c2ccc(CN3CCCC3)cc2)N(C)C=C1C(=O)OC (centres undefined) occupy?
bucket 2

Band assignment needed for CCCCN1CC=CC23O[C@@H]4/C=C\CCCOC(=O)C4[C@H]2C(=O)N(CCCCCCO)[C@@H]3C1=O (some centres undefined) please.
bucket 1

Textbook exercise: identify the category of the compound given here, O=C1OCCC/C=C\[C@H]2OC34C=CCN(Cc5ccccc5)C(=O)[C@H]3N(CCO)C(=O)[C@@H]4C12 (some centres undefined) , according to its measured value.
bucket 2

Numbers sourced from PubChem BioAssay.
